- System: HCT-116
- assay details: NCI tumour cell line growth inhibition, 48 h
Active and inactive are the calls of the source. Rule as the data show it: active = GI50 up to about 1.1 µM and inactive = higher.
// allowed return values: YES for active, NO for inactive

Q: Any idea what this test logged for CC(C)OP(=O)(OC(C)C)/C(C#N)=C/c1c[nH]c2ccccc12 ?
Ans: NO

Q: Then C=C1C(=O)O[C@H]2[C@H]3O[C@@H](C[C@@H]12)[C@@]1(C)CC[C@H](O1)C(C)=CCC[C@H]3C ?
Ans: NO

Q: Then CC1CC(OP(=O)(OCc2ccccc2)OCc2ccccc2)[C@@H](OCc2ccccc2)C(OCc2ccccc2)C1OCc1ccccc1 (stereo partly specified) ?
Ans: NO

Q: Then COC(=O)c1c/c(=N\NC(=O)CC(=O)Nc2ccccc2OC)c2ccccc2o1 ?
Ans: NO

Q: Then COc1ccc(OC)c(NC2=NCCO2)c1 ?
Ans: NO

Q: Then N#CCCN(CCCN(C(=O)N(c1ccccc1)c1ccccc1)c1ccccc1)C(=O)Nc1ccccc1 ?
Ans: NO

Q: Then C[C@H]1[C@H](C)N1CC(O)Cn1ccnc1[N+](=O)[O-] (stereo partly specified) ?
Ans: NO

Q: Then [N-]=[N+]=Nc1c(Br)c(=O)[nH]c(=O)n1COCCO ?
Ans: NO

Q: Then O=C1SC(SCc2ccccc2)=NC12CC2c1ccccc1 (stereo unspecified) ?
Ans: NO

Q: Then c1ccc(/C(=N/Nc2ccccn2)c2ncccn2)cc1 ?
Ans: YES

Q: Then COC(=O)c1cn(CCCC(=O)O)nn1 ?
Ans: NO

Q: Then CCOc1ccccc1NC(=O)C(=O)CC(=O)c1c(C)[n+]([O-])c2ccccc2[n+]1[O-] ?
Ans: NO

Q: Then N/C(COc1ccc(Cl)cc1)=N\NC(=O)c1ccncc1 ?
Ans: NO

Q: Then NCCNc1ncnc2ccc(Cl)cc12 ?
Ans: NO

Q: Then Cc1cccc(C)c1NC(=O)CCC(=O)NNc1nnc(C)n1N ?
Ans: NO

Q: Then NS(=O)(=O)c1ccc(/N=N/c2nc3nc(O)nc(O)c3[nH]2)cc1 ?
Ans: NO

Q: Then CCOC(=O)c1nnsc1NC(=O)Nc1ccc(Cl)cc1 ?
Ans: NO

Q: Then O=S1(=O)c2ccccc2N2CCCc3cc(Cl)cc1c32 ?
Ans: NO

Q: Then CN1C(=O)CC(CC(=O)C2CCCCC2=O)CC1=O (stereo unspecified) ?
Ans: NO

Q: Then C=CCC(NCc1ccccc1)[C@H](OCc1ccccc1)[C@@H]1COC(C)(C)O1 (stereo partly specified) ?
Ans: NO

Q: Then COc1ccc(/C=C2\CCS(=O)(=O)c3ccccc3C2=O)cc1 ?
Ans: NO

Q: Then O=C(Nc1ccc(Cl)c(Cl)c1)C1C(=O)N(c2ccc(Cl)c(Cl)c2)C(=O)/C1=N\O (stereo unspecified) ?
Ans: NO

Q: Then CC(=O)Oc1c(N2CCCCC2)c(C(=O)c2ccccc2)c(O)c2ccn(N(C)C)c12 ?
Ans: NO

Q: Then COc1cc2c(c(O)c1OC)C(=O)[C@@H]1CCC(=O)N1C2c1ccccc1 (stereo partly specified) ?
Ans: NO

Q: Then COC(=O)/C(=N\NC(N)=O)C(C(=O)C(=O)Nc1ccccc1OC)c1nc2ccc([N+](=O)[O-])cc2nc1O (stereo unspecified) ?
Ans: NO

Q: Then O=C(O)c1ccc(Oc2nc3ccccc3s2)cc1 ?
Ans: NO

Q: Then CN1C=C(C(N)=O)C2CC(O)[C@@](NC(=O)CS(N)(=O)=O)(C(=O)O)C2C1 (stereo partly specified) ?
Ans: NO

Q: Then C[C@]12CCC(O)CC1=CC[C@@H]1[C@@H]2CC[C@]2(C)C(=O)[C@H](n3ccnc3)C[C@@H]12 (stereo partly specified) ?
Ans: NO

Q: Then CCCO/N=[N+](\[O-])N(CC)CC ?
Ans: NO

Q: Then CSc1nc(SC)c2c(C)c(Br)[nH]c2n1 ?
Ans: NO

Q: Then COc1cc([C@H]2Oc3cc(O)c4c(=O)cc(-c5ccccc5)oc4c3O[C@@H]2CO)ccc1O ?
Ans: NO

Q: Then Nc1ncnc2c1cnn2Cc1cn(COCC(O)CO)nn1 (stereo unspecified) ?
Ans: NO

Q: Then S=C1SC(=N\c2ccccc2)/C(=N/c2ccccc2)N1c1ccc2ccccc2c1 ?
Ans: NO

Q: Then COc1cccc(/C=C/c2cc(OC)c(OC)c(OC)c2)c1 ?
Ans: NO

Q: Then C=CCN(CCN(CC=C)S(=O)(=O)c1ccc(C)cc1)S(=O)(=O)c1ccc(C)cc1 ?
Ans: NO

Q: Then COC(=O)c1ccc(/C=C/C2=CC(=O)C=CC2=O)cc1 ?
Ans: NO
